- TARGET_OR_SYSTEM: F508delCFTR (Homo sapiens, UniProt P13569, DEL508-508)
- Sequence (P13569 with tags, fused parts or gaps DEL508-508): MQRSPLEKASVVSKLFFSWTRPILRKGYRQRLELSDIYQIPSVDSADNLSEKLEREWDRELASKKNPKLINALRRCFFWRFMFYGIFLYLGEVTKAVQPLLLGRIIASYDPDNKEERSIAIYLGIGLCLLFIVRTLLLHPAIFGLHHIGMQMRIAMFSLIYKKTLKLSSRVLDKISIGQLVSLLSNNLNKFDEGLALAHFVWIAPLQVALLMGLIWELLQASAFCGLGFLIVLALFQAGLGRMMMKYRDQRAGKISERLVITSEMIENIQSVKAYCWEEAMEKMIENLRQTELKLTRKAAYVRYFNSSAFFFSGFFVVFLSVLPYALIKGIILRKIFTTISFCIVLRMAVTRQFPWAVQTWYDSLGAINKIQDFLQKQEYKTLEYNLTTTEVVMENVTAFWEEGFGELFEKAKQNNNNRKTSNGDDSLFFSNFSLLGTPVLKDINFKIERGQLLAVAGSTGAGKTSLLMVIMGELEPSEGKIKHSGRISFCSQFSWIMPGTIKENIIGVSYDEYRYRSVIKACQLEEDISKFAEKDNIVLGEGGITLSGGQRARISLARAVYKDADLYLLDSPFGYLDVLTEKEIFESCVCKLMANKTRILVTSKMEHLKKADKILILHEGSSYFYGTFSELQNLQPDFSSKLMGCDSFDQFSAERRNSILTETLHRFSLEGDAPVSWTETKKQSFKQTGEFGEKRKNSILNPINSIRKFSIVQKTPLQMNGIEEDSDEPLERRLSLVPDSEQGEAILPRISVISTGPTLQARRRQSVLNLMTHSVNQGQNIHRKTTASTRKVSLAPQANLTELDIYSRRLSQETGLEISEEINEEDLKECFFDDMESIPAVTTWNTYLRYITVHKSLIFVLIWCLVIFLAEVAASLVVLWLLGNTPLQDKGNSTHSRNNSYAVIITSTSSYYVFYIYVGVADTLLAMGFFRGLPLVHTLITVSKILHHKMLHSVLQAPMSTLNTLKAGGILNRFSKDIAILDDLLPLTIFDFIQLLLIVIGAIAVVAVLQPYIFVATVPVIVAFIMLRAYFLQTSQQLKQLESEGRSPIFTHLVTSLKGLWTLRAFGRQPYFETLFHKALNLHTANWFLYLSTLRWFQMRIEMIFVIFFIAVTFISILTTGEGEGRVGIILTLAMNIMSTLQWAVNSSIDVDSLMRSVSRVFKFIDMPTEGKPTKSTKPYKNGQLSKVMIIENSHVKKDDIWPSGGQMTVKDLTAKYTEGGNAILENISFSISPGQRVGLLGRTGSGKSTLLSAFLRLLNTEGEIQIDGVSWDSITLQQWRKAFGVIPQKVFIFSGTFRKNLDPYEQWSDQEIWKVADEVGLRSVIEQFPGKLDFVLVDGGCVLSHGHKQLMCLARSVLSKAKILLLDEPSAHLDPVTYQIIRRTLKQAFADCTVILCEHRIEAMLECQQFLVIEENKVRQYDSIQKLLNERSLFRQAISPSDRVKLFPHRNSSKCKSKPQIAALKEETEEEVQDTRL
- EXPERIMENT_SUMMARY: Cell Surface Expression-Horse Radish Peroxidase (CSE-HRP) assay
- MEASUREMENT_PARAMETERS: CFBE41o-F508delCFTR-HRP cells, cell surface expression, luminescence readout; 18-24 hours at 33° C.; highest concentration tested 20 μM, 8-point curve
# label = true (1) if EC50 < 800 nM else false (0)

Reference set, count: 10
1) COC(=O)c1ccc([C@H]2C[C@@H](NC(=O)C3(c4ccc5c(c4)OC(F)(F)O5)CC3)CCO2)c(C)c1 (racemic) [Example 36]	true (1)
2) O=C(O)c1ccc([C@H]2C[C@@H](NC(=O)C3(c4ccc5c(c4)OC(F)(F)O5)CC3)C[C@@H](c3ccccc3)O2)cc1 (racemic) [Example 50]	true (1)
3) COC(=O)c1cccc([C@H]2C[C@H](NC(=O)C3(c4ccc5c(c4)OC(F)(F)O5)CC3)CCO2)c1 (racemic) [Example 4]	false (0)
4) Cc1cc(C(=O)O)cc([C@H]2C[C@@H](NC(=O)C3(c4ccc5c(c4)OC(F)(F)O5)CC3)C[C@@H](c3ccccc3)O2)c1 (racemic) [Example 73]	true (1)
5) COC(=O)c1ccc([C@@H]2C[C@@H](NC(=O)C3(c4ccc5c(c4)OC(F)(F)O5)CC3)C[C@H](c3ccc(C(=O)OC)cc3)O2)cc1 [Example 52]	false (0)
6) O=C(O)c1cccc([C@H]2C[C@@H](NC(=O)C3(c4ccc5c(c4)OC(F)(F)O5)CC3)C[C@@H](c3ccccc3)O2)c1 (racemic) [Example 24]	true (1)
7) O=C(O)c1ccc([C@H]2C[C@H](NC(=O)C3(c4ccc5c(c4)OC(F)(F)O5)CC3)C[C@@H](c3ccccc3)O2)cc1 (racemic) [Example 49]	false (0)
8) COC(=O)c1ccc([C@H]2C[C@H](NC(=O)C3(c4ccc5c(c4)OC(F)(F)O5)CC3)C[C@@H](c3ccccc3)O2)cc1 (racemic) [Example 47]	false (0)
9) COc1cccc([C@@H]2C[C@H](NC(=O)C3(c4ccc5c(c4)OC(F)(F)O5)CC3)C[C@H](c3cccc(C(=O)O)c3)O2)c1 (racemic) [Example 69]	true (1)
10) Cc1cc(C(=O)O)ccc1[C@H]1C[C@H](NC(=O)C2(c3ccc4c(c3)OC(F)(F)O4)CC2)C[C@@H](c2ccccc2)O1 (single isomer, unassigned) [Example 65]	true (1)

Request: Does this compound meet the criterion EC50 < 800 nM? COc1ccc([C@@H]2C[C@H](NC(=O)C3(c4ccc5c(c4)OC(F)(F)O5)CC3)C[C@H](c3ccc(C(=O)O)cc3)O2)cc1 (single isomer, unassigned) [Example 66]
Response: true (1)

Request: Moving on to the next compound: COC(=O)c1ccc([C@H]2C[C@@H](NC(=O)C3(c4ccc5c(c4)OC(F)(F)O5)CC3)C[C@@H](C)O2)cc1 (racemic) [Example 39]
Response: false (0)

Request: Moving on to the next compound: O=C(O)c1ccc([C@@H]2C[C@H](NC(=O)C3(c4ccc5c(c4)OC(F)(F)O5)CC3)CCO2)cc1 [Example 30]
Response: false (0)

Request: Moving on to the next compound: COC(=O)c1cccc([C@H]2C[C@@H](NC(=O)C3(c4ccc5c(c4)OC(F)(F)O5)CC3)CCO2)c1 [Example 17]
Response: false (0)

Request: Moving on to the next compound: COC(=O)c1cccc([C@H]2C[C@H](NC(=O)C3(c4ccc5c(c4)OC(F)(F)O5)CC3)C[C@@H](c3ccccc3)O2)c1 (racemic) [Example 22]
Response: false (0)

Request: Moving on to the next compound: C[C@@H]1C[C@H](NC(=O)C2(c3ccc4c(c3)OC(F)(F)O4)CC2)C[C@H](c2ccc(C(=O)O)cc2)O1 (single isomer, unassigned) [Example 59]
Response: false (0)

* * *

- TARGET_OR_SYSTEM: F508delCFTR (Homo sapiens, UniProt P13569, DEL508-508)
- EXPERIMENT_SUMMARY: Cell Surface Expression-Horse Radish Peroxidase (CSE-HRP) assay
- MEASUREMENT_PARAMETERS: CFBE41o-F508delCFTR-HRP cells, cell surface expression, luminescence readout; 18-24 hours at 33° C.; highest concentration tested 20 μM, 8-point curve
- Method: Cell Surface Expression-Horse Radish Peroxidase (CSE-HRP) Assay: A cellular assay for measuring the F508delCFTR cell surface expression after correction with test compounds was developed in human lung derived epithelial cell line (CFBE41o-) (Veit G et al, (2012) Mol Biol Cell. 23(21): 4188-4202). […] The raw counts from the experiment are analyzed using Accelrys® Assay Explorer v3.3. […]
Reported EC50 values follow for various molecules
Kindly answer with a numeric value in nM, unit omitted.

1. O=C(O)c1ccc([C@H]2C[C@@H](NC(=O)C3(c4ccc5c(c4)OC(F)(F)O5)CC3)C[C@@H](c3ccccc3)O2)cc1 (single isomer, unassigned) [Example 53]	300
2. O=C(N[C@H]1CCO[C@@H](c2cccc(CO)c2)C1)C1(c2ccc3c(c2)OC(F)(F)O3)CC1 (racemic) [Example 9]	2260
3. COC(=O)c1cccc([C@H]2C[C@@H](NC(=O)C3(c4ccc5c(c4)OC(F)(F)O5)CC3)CCO2)c1 (racemic) [Example 3]	1410
4. C[C@@H]1C[C@H](NC(=O)C2(c3ccc4c(c3)OC(F)(F)O4)CC2)C[C@H](c2ccc(C(=O)O)cc2)O1 (racemic) [Example 45]	2000
5. COC(=O)c1ccccc1[C@H]1C[C@@H](NC(=O)C2(c3ccc4c(c3)OC(F)(F)O4)CC2)CCO1 (racemic) [Example 11]	900

# input for lookup
Request: // query EC50 value for entry CC(=O)c1cccc([C@H]2C[C@@H](NC(=O)C3(c4ccc5c(c4)OC(F)(F)O5)CC3)CCO2)c1 (racemic) [Example 8]
Response: 1390

* * *

- TARGET_OR_SYSTEM: F508delCFTR (Homo sapiens, UniProt P13569, DEL508-508)
- EXPERIMENT_SUMMARY: Cell Surface Expression-Horse Radish Peroxidase (CSE-HRP) assay
- MEASUREMENT_PARAMETERS: CFBE41o-F508delCFTR-HRP cells, cell surface expression, luminescence readout; 18-24 hours at 33° C.; highest concentration tested 20 μM, 8-point curve
Reported pEC50 values follow for various molecules
On this scale, pEC50 is minus log10 of a concentration expressed in M (mol/L).

1) COC(=O)c1ccc([C@H]2C[C@@H](NC(=O)C3(c4ccc5c(c4)OC(F)(F)O5)CC3)CCO2)cc1 [Example 29]	5.98
2) COc1ccc([C@@H]2C[C@@H](NC(=O)C3(c4ccc5c(c4)OC(F)(F)O5)CC3)C[C@H](c3ccc(C(=O)O)cc3)O2)cc1 (racemic) [Example 56]	5.72
3) O=C(O)c1cccc([C@H]2C[C@H](NC(=O)C3(c4ccc5c(c4)OC(F)(F)O5)CC3)C[C@@H](c3ccccc3)O2)c1 (racemic) [Example 25]	5.69
4) COc1cccc([C@@H]2C[C@H](NC(=O)C3(c4ccc5c(c4)OC(F)(F)O5)CC3)C[C@H](c3cccc(C(=O)O)c3)O2)c1 (single isomer, unassigned) [Example 74]	6.62
5) COC(=O)c1ccc([C@H]2C[C@@H](NC(=O)C3(c4ccc5c(c4)OC(F)(F)O5)CC3)CC(C)(C)O2)cc1 (racemic) [Example 34]	5.79

Request: Any idea what pEC50 came out for COC(=O)c1cccc([C@@H]2C[C@H](NC(=O)C3(c4ccc5c(c4)OC(F)(F)O5)CC3)CCO2)c1 [Example 16] on F508delCFTR (Homo sapiens, UniProt P13569, DEL508-508)?
Response: 5.58

Request: Moving on to the next molecule: O=C(N[C@@H]1CCO[C@@H](c2cccc(CO)c2)C1)C1(c2ccc3c(c2)OC(F)(F)O3)CC1 (racemic) [Example 6]
Response: 5.29

* * *

Reported pEC50 values follow for various compounds
- TARGET_OR_SYSTEM: F508del/F508del CFTR (Homo sapiens, UniProt P13569, DEL508-508)
- Construct: cells isolated from CF patients with the homozygous mutation; endogenous in cells
- Sequence (P13569 with tags, fused parts or gaps DEL508-508): as above
- EXPERIMENT_SUMMARY: Transepithelial Clamp Circuit (TECC-24) conductance assay on primary human bronchial epithelial cells
- MEASUREMENT_PARAMETERS: primary hBE cells from F508del/F508delCFTR patients; equivalent short circuit current (Ieq); correctors 18-24 hours at 37° C.; with control potentiator; 6 test concentrations
- Description: Transepithelial Clamp Circuit on Human Bronchial Epithelial Cells Conductance Assay: A cell based assay using the primary human bronchial epithelial cells (hBE) was used as a secondary assay to test novel F508delCFTR correctors for their activity on primary hBE cells with F508del/F508del CFTR mutation. […] The assay was run in a 24-well format and all 24-wells were measured at the same time point giving a higher throughput for this assay. […]
On this scale, pEC50 is minus log10 of a concentration expressed in M (mol/L).

Sample answers from the record:
1) O=C(O)c1cccc([C@H]2C[C@@H](NC(=O)C3(c4ccc5c(c4)OC(F)(F)O5)CC3)C[C@@H](c3ccccc3)O2)c1 [Example 27]	7.00
2) O=C(O)c1ccc([C@H]2C[C@@H](NC(=O)C3(c4ccc5c(c4)OC(F)(F)O5)CC3)C[C@@H](c3ccccc3)O2)cc1 (single isomer, unassigned)	6.59

Request: // query pEC50 value for entry O=C(O)c1ccc([C@H]2C[C@@H](NC(=O)C3(c4ccc5c(c4)OC(F)(F)O5)CC3)CCO2)cc1 [Example 31]
Response: 5.99
